target: full length SGK1 (Homo sapiens, UniProt O00141); construct: 125 μM full length SGK1 (Life Technologies Part #PR7358A); purchased Life Technologies PR7358A; test: SGK1 inhibition Assay A (Caliper LabChip electrophoretic separation of fluorescent peptide substrate and phosphorylated product); type: biochemical; conditions: Assay A; 20 μM ATP, 40 min incubation; read-out: SGK1 IC50
Sequence (O00141 whole entry): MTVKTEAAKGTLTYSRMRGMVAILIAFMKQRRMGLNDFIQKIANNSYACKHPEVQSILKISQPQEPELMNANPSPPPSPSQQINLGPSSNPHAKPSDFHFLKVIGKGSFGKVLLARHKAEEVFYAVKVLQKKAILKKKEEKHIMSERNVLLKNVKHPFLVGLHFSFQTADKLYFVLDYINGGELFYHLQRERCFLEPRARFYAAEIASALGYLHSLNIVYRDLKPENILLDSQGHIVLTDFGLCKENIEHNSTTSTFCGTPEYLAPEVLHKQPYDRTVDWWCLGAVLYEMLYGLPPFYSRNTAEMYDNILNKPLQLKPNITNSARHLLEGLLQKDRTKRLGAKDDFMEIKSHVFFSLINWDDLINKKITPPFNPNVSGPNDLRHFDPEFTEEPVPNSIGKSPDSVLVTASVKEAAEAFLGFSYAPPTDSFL
pIC50: −log10 of the molar value. Counter-ions that a name gives are not always drawn.
Threshold check on pIC50: at or above 7 gives true (1), strictly below gives false (0).

Reference set (4 entries):
- CC(=O)N1CC=C(c2cc(N3CCC[C@@H](NC(=O)c4sc(C)cc4N4CCN(C)CC4)C3)c3c(N)ncnn23)C1: true (1)
- CN(C)C(=O)COc1cc(Cl)sc1C(=O)N[C@@H]1CCCN(c2cc(-c3ccnc(C(F)F)c3)n3ncnc(N)c23)C1: true (1)
- CS(=O)(=O)c1ccc(-c2cc(N3CCC[C@@H](NC(=O)CCc4ccccc4)C3)c3c(N)ncnn23)cc1 [Example 15, TFA]: false (0)
- Nc1ncnn2c(-c3ccnc(F)c3)cc(N3CCC[C@@H](NC(=O)c4ccc(C(F)F)s4)C3)c12 [Example 152, TFA]: true (1)

For this compound, is measured pIC50 7 or higher? Cc1ccc(C(=O)N[C@@H]2CCCN(c3cc(-c4ccc(S(C)(=O)=O)cc4)n4ncnc(N)c34)C2)s1
true (1)

In plain terms: is recorded pIC50 at least 7 for Nc1ncnn2c(-c3ccn4nnnc4c3)cc(N3CCC[C@@H](NC(=O)c4ccc(Cl)s4)C3)c12 ?
true (1)

API: above_or_equal(metric=pIC50, cutoff=7) for item Nc1ncnn2c(-c3cncnc3)cc(N3CCC[C@@H](NC(=O)c4sc(Cl)cc4OC4CCN(C5CC5)CC4)C3)c12
true (1)

Where these numbers come from: patent US20260250290A1
